test system: Aedes aegypti mosquitoes; experiment: in vitro Gupta box landing assay (insect repellency); details: 20 min; 1% (w/v) in isopropyl alcohol, 25 μL on Baudruche membrane; female Aedes aegypti; landings over 20 min vs IPA control
Would you mind sorting the entries by pest or weed control at 10000 µg/mL according to these classes? bin A (below 70%), bin B (70% to below 90%), bin C (90% or more)

**Query** Sort into band: C[C@@H]1CN(c2ccc(Br)cc2)C(=O)[C@H]2[C@@H]1CC[C@@H]2C
**Result** bin A

**Query** Pick a category. Item: CCCCCCN1C[C@@H](C)[C@H]2CC[C@H](C)[C@H]2C1=O
**Result** bin C

**Query** // return the class label for CCCCCCCCN1C[C@@H](C)[C@H]2CC[C@H](C)[C@H]2C1=O
**Result** bin C

**Query** Bin this entry: C[C@@H]1CN(c2ccc(Cl)cc2)C(=O)[C@H]2[C@@H]1CC[C@@H]2C
**Result** bin B

**Query** Kindly state the category for this compound: CCCCN1C[C@@H](C)[C@H]2CC[C@H](C)[C@H]2C1=O
**Result** bin B

**Query** Lab note: sort CCN1C[C@@H](C)[C@H]2CC[C@H](C)[C@H]2C1=O into the matching pest or weed control at 10000 µg/mL band.
**Result** bin C
